TARGET UNDER TEST: T1, VA peptide
T1 construct: The peptide was coated on the Octet sensor; also called peptide with N-terminal valine and penultimate alanine
METHOD DESCRIPTION: BLI (Octet), peptide on sensor, purified protein in solution
MEASURED PARAMETER: Octet response after 200 sec association

BINDER | RECORDED VALUE
PS833 (designed binder, Variant of PS557) MPTAASATESAIEDTPAPARPVVDGRTKPKRQPRYHVVLWDDDDHTYQYVVVMLQSLFGHPPERGYRLAKEMDTQGRVIVLTTTREHAELKRDQIHAFGYDRLLARSKGSMKASIEAEE | 8.6 nm
PS847 (designed binder, Variant of PS557) MPTAASATESAIEDTPAPARPEVDGRTKPKRQPRYHVVLWDDDDHTYQYVVVMLRSLFGHPPERGYRLAKEMDTQGRVIVLTTTREHAELKRDQIHAFGYDRLLARSKGSMKASIEAEE | 6.68 nm
PS819 (designed binder, Variant of PS557; also called V72M, N41D, E63K) MPTAASATESAIEDTPAPARPEVDGRTKPKRQPRYHVVLWDDDDHTYQYVVVMLQSLFGHPPKRGYRLAKEMDTQGRVIVLTTTREHAELKRDQIHAFGYDRLLARSKGSMKASIEAEE | 7.42 nm
PS796 (designed binder, also called N41D, V72M) MPTAASATESAIEDTPAPARPEVDGRTKPKRQPRYHVVLWDDDDHTYQYVVVMLQSLFGHPPERGYRLAKEMDTQGRVIVLTTTREHAELKRDQIHAFGYDRLLARSKGSMKASIEAEE | 11.3 nm
PS829 (designed binder, Variant of PS557) MPTAASATESAIEDTPAPARPEVDGRTKPKRQPRYHVVLWDDDDHTYQYVVVMLQSLFGHPRERGYRLAKEMDTLGRVIVLTTTREHAELKRDQIHAFGYDRLLARSKGSMKASIEAEE | 9.5 nm
PS828 (designed binder, Variant of PS557) MPTAASATESAIEDTPAPARPEVDGRTKPKRQPRYHVVLWDDDDHTYQYVVVMLQSLFGHPRERGYRLAKEVDTLGRVIVLTTTREHAELKRDQIHAFGYDRLLARSKGSMKASIEAEE | 3.24 nm
PS824 (designed binder, Variant of PS557) MPTAASATESAFEDTPAPARPEVDGRTKPKRQPRYHVVLWDDDDHTYQYVVVMLRSLFGHPPERGYRLAKEMDTQGRVIVLTTTREHAELKRDQIHAFGYDRLLARSKGSMKASIEAEE | 13.3 nm
PS808 (designed binder, Variant of PS557; also called Q55R) MPTAASATESAIEDTPAPARPEVDGRTKPKRQPRYHVVLWNDDDHTYQYVVVMLRSLFGHPPERGYRLAKEVDTQGRVIVLTTTREHAELKRDQIHAFGYDRLLARSKGSMKASIEAEE | 5.71 nm
PS797 (designed binder, Variant of PS557; also called N41D, V72M, Q75L) MPTAASATESAIEDTPAPARPEVDGRTKPKRQPRYHVVLWDDDDHTYQYVVVMLQSLFGHPPERGYRLAKEMDTLGRVIVLTTTREHAELKRDQIHAFGYDRLLARSKGSMKASIEAEE | 11.2 nm
PS801/PS814 (designed binder, also called E63K) MPTAASATESAIEDTPAPARPEVDGRTKPKRQPRYHVVLWNDDDHTYQYVVVMLQSLFGHPPKRGYRLAKEVDTQGRVIVLTTTREHAELKRDQIHAFGYDRLLARSKGSMKASIEAEE | 5.73 nm
PS798 (designed binder, Variant of PS557; also called V72M, Q75L) MPTAASATESAIEDTPAPARPEVDGRTKPKRQPRYHVVLWNDDDHTYQYVVVMLQSLFGHPPERGYRLAKEMDTLGRVIVLTTTREHAELKRDQIHAFGYDRLLARSKGSMKASIEAEE | 12.9 nm
PS557 (other, Natural parent ClpS protein, expressed in E. coli and purified; also called WT; wild-type protein) MPTAASATESAIEDTPAPARPEVDGRTKPKRQPRYHVVLWNDDDHTYQYVVVMLQSLFGHPPERGYRLAKEVDTQGRVIVLTTTREHAELKRDQIHAFGYDRLLARSKGSMKASIEAEE | 5.9 nm
PS852 (designed binder, Variant of PS557) MPTAASATESAIEDTPAPARPEVDGRTKPKHQPRYHVVLWDDDDHTYQYVVVMLRSLFGHPPERGYRLAKEMDTQGRVIVLTTTREHAELKRDQIHAFGYDRLLARSKGSMKASIEAEE | 8.3 nm
PS809 (designed binder, Variant of PS557; also called V72M) MPTAASATESAIEDTPAPARPEVDGRTKPKRQPRYHVVLWNDDDHTYQYVVVMLQSLFGHPPERGYRLAKEMDTQGRVIVLTTTREHAELKRDQIHAFGYDRLLARSKGSMKASIEAEE | 7.77 nm
PS831 (designed binder, Variant of PS557) MPTAASATESAIEDTPAPARPEVDGRTKPKRQPRYHVVLWNDDDHTYQYVVVMLQSLFGHPRKRGYRLAKEMDTLGRVIVLTTTREHAELKRDQIHAFGYDRLLARSKGSMKASIEAEE | 11 nm
PS838 (designed binder, Variant of PS557; also called V72M, N41D, P62R) MPTAASATESAIEDTPAPARPEVDGRTKPKRQPRYHVVLWDDDDHTYQYVVVMLQSLFGHPRERGYRLAKEMDTQGRVIVLTTTREHAELKRDQIHAFGYDRLLARSKGSMKASIEAEE | 11.6 nm
PS830 (designed binder, Variant of PS557) MPTAASATESAIEDTPAPARPEVDGRTKPKRQPRYHVVLWDDDDHTYQYVVVMLQSLFGHPRKRGYRLAKEMDTLGRVIVLTTTREHAELKRDQIHAFGYDRLLARSKGSMKASIEAEE | 6.64 nm

Reference for the values: patent US20240272170A1
